Target: c-Kit(V654A) (Homo sapiens, UniProt P10721, V654A)
Experiment: c-Kit(V654A) assay
Type: biochemical
Details: Table 1; 200 μM ATP
Quick rule for you: IC50 under 2 nM gets fulfilled, anything else gets not fulfilled.

INPUT: Please indicate whether the reported IC50 of COCCOc1cc2[nH]nc(-c3cc(-c4ccc(C(=O)N5CCS(=O)(=O)CC5)cc4)no3)c2cc1F [A30] is strictly below 2 nM.
OUTPUT: fulfilled

INPUT: Please indicate whether the reported IC50 of COCCOc1cc2[nH]nc(-c3cc(-c4ccc(Oc5ccccn5)cc4)no3)c2cc1F [A143] is strictly below 2 nM.
OUTPUT: not fulfilled

INPUT: Please indicate whether the reported IC50 of COCCOc1cc2[nH]nc(-c3cc(-c4ccc(-n5cncn5)cc4)no3)c2cc1F [A21] is strictly below 2 nM.
OUTPUT: not fulfilled

INPUT: Please indicate whether the reported IC50 of COCCOc1cc2[nH]nc(-c3cc(-c4ccc(C(=O)NCC(C)(C)N5CCOCC5)cc4)no3)c2cc1F [A164] is strictly below 2 nM.
OUTPUT: fulfilled

INPUT: Please indicate whether the reported IC50 of COCCOc1cc2[nH]nc(-c3cc(-c4ccc(C(=O)N5C[C@H]6COC[C@H]6C5)c(C)c4)no3)c2cc1F [A70] is strictly below 2 nM.
OUTPUT: not fulfilled

INPUT: Please indicate whether the reported IC50 of COCCOc1cc2[nH]nc(-c3cc(-c4ccc(C(=O)N5CC(F)C5)cn4)no3)c2cc1F [A81] is strictly below 2 nM.
OUTPUT: not fulfilled

INPUT: Please indicate whether the reported IC50 of COCCOc1cc2[nH]nc(-c3cc(-c4ccc(C(=O)N5CC[C@@H](F)C5)cc4)no3)c2cc1F [A27] is strictly below 2 nM.
OUTPUT: fulfilled

INPUT: Please indicate whether the reported IC50 of COCCOc1cc2[nH]nc(-c3cc(-c4ccc(C(=O)N5CCN(CC6CC6)CC5)cc4)no3)c2cc1F [A179] is strictly below 2 nM.
OUTPUT: fulfilled

====

Target: c-Kit(V654A) (Homo sapiens, UniProt P10721, V654A)
Test: c-Kit(V654A) assay
Assay type: biochemical
Conditions: Table 1; 200 μM ATP
Method: c-Kit(V654A) (N-terminal GST-tagged, recombinant human c-Kit, amino acids 544-end containing the V654A mutation) is incubated with 8 mM MOPS pH 7.0, 0.2 mM EDTA, 250 μM GGMEDIYEFMGGKKK, 10 mM MgAcetate and [gamma-33P-ATP](specific activity approx. 500 cpm/pmol, concentration 200 μM). The reaction is initiated by the addition of the MgATP mix. After incubation for 40 minutes at room temperature, the reaction is stopped by the addition of 3% phosphoric acid solution. […]
pIC50: −log10 of the molar value.
pIC50 below 9 gives false; pIC50 at or above it gives true.

INPUT: Threshold query (pIC50 >= 9) on `COCCOc1cc2[nH]nc(-c3cc(-c4ccc(C(=O)N5CCC6(CC5)COC6)cc4)no3)c2cc1F`
OUTPUT: true

INPUT: Threshold query (pIC50 >= 9) on `COCCOc1cc2[nH]nc(-c3cc(-c4ccc(C)nc4)no3)c2cc1Cl`
OUTPUT: false

INPUT: Threshold query (pIC50 >= 9) on `COCCOc1cc2[nH]nc(-c3cc(-c4ccc(N5CCS(=O)(=O)CC5)cc4)no3)c2cc1F`
OUTPUT: false

INPUT: Threshold query (pIC50 >= 9) on `COCCOc1cc2[nH]nc(-c3cc(-c4ccc(N5CCOCC5)nc4)no3)c2cc1F`
OUTPUT: false

INPUT: Threshold query (pIC50 >= 9) on `COCCOc1cc2[nH]nc(-c3cc(-c4ccc(C(=O)N5CC(N6CCOCC6)C5)cc4)on3)c2cc1F`
OUTPUT: false

INPUT: Threshold query (pIC50 >= 9) on `COCCOc1cc2[nH]nc(-c3cc(-c4ccc(NC(C)=O)cc4)no3)c2cc1F`
OUTPUT: false

INPUT: Threshold query (pIC50 >= 9) on `COCCOc1cc2[nH]nc(-c3cc(-c4ccc(C(=O)N5CCC6(CCOCC6)C5)cc4)no3)c2cc1F`
OUTPUT: true

INPUT: Threshold query (pIC50 >= 9) on `COCCOc1cc2[nH]nc(-c3cc(-c4ccc(C(=O)N5CCC56COC6)c(F)c4)no3)c2cc1F`
OUTPUT: false

====

Target: c-Kit(V654A) (Homo sapiens, UniProt P10721, V654A)
Assay: c-Kit(V654A) assay
Assay type: biochemical
Conditions: Table 1; 200 μM ATP
Protocol: c-Kit(V654A) (N-terminal GST-tagged, recombinant human c-Kit, amino acids 544-end containing the V654A mutation) is incubated with 8 mM MOPS pH 7.0, 0.2 mM EDTA, 250 μM GGMEDIYEFMGGKKK, 10 mM MgAcetate and [gamma-33P-ATP](specific activity approx. 500 cpm/pmol, concentration 200 μM). The reaction is initiated by the addition of the MgATP mix. After incubation for 40 minutes at room temperature, the reaction is stopped by the addition of 3% phosphoric acid solution. […]
Could you please report measured log10 IC50 for the items listed next?
Please note: log10 values; quantity IC50; unit nM.

INPUT: Determine from records and report log10 IC50 for `COCCOc1cc2[nH]nc(-c3cc(-c4ccc(C(=O)N5CCOC[C@@H]5C)cc4)no3)c2cc1F`
OUTPUT: -0.08

INPUT: Determine from records and report log10 IC50 for COCCOc1cc2[nH]nc(-c3cc(-c4ccc(C(=O)N5C[C@H]6COCC[C@H]6C5)cc4)no3)c2cc1F (relative stereo)
OUTPUT: -0.36

INPUT: Determine from records and report log10 IC50 for `COCCOc1cc2[nH]nc(-c3cc(-c4ccc(C(=O)N(C)C)cc4)no3)c2cc1Cl`
OUTPUT: -0.04

INPUT: Determine from records and report log10 IC50 for `COCCOc1cc2[nH]nc(-c3cc(-c4ccc(C(=O)N5CC(c6ccnc(C)n6)C5)cc4)no3)c2cc1F`
OUTPUT: 0.04

INPUT: Determine from records and report log10 IC50 for `COCCOc1cc2[nH]nc(-c3cc(-c4ccc(C(=O)N5CCC6(CC5)CN(C)C6)cc4)no3)c2cc1F`
OUTPUT: 0.41

INPUT: Determine from records and report log10 IC50 for `COCCOc1cc2[nH]nc(-c3cc(-c4ccc(C(=O)N5CCC[C@@H]5CNS(C)(=O)=O)cc4)no3)c2cc1F`
OUTPUT: -0.24

INPUT: Determine from records and report log10 IC50 for `COCCOc1cc2[nH]nc(-c3cc(-c4ccc(C(=O)N5CC(N6CCN(C7COC7)CC6)C5)cc4)no3)c2cc1F`
OUTPUT: 0.28

INPUT: Determine from records and report log10 IC50 for `COCCOc1cc2[nH]nc(-c3cc(-c4ccc(C)nc4)no3)c2cc1F`
OUTPUT: 1.51

INPUT: Determine from records and report log10 IC50 for `COCCOc1cc2[nH]nc(-c3cc(-c4ccc(C(=O)N5CCC[C@@H]5CS(C)(=O)=O)cc4)no3)c2cc1F`
OUTPUT: -0.14

INPUT: Determine from records and report log10 IC50 for `C[C@H]1CN(C)CCN1C(=O)c1ccc(-c2cc(-c3n[nH]c4cc(C(F)(F)F)ccc34)on2)cc1`
OUTPUT: 1.15

INPUT: Determine from records and report log10 IC50 for `COCCOc1cc2[nH]nc(-c3cc(-c4ccc(C(=O)N5CCCN(C6COC6)CC5)cc4)no3)c2cc1F`
OUTPUT: -0.04

INPUT: Determine from records and report log10 IC50 for `COc1cc2[nH]nc(-c3cc(-c4ccc(C(=O)N5C[C@H]6COC[C@H]6C5)cc4)no3)c2cc1F`
OUTPUT: 0.34

INPUT: Determine from records and report log10 IC50 for `COCCOc1cc2[nH]nc(-c3cc(-c4ccc(C(=O)N5CCN(C)CC5)cc4)no3)c2cc1F`
OUTPUT: 0.08

INPUT: Determine from records and report log10 IC50 for `COCCOc1cc2[nH]nc(-c3cc(-c4ccc(C(=O)N5CC(N6CC(F)C6)C5)cc4)no3)c2cc1F`
OUTPUT: -0.03

INPUT: Determine from records and report log10 IC50 for `COCCOc1cc2[nH]nc(-c3cc(-c4ccc(C(=O)N5Cc6cnn(C)c6C5)cc4)no3)c2cc1F`
OUTPUT: -0.31

INPUT: Determine from records and report log10 IC50 for COCCOc1cc2[nH]nc(-c3cc(-c4ccc(C5CCN(C)CC5(C)C)cc4)no3)c2cc1F (stereo not shown)
OUTPUT: -0.21

INPUT: Determine from records and report log10 IC50 for `COCCOc1cc2[nH]nc(-c3cc(-c4ccc(C(=O)N5CC(c6ccncn6)C5)cc4)no3)c2cc1F`
OUTPUT: -0.05

INPUT: Determine from records and report log10 IC50 for `COCCOc1cc2[nH]nc(-c3cc(-c4ccc(C(=O)N5CC(N6CCCC6)C5)cc4)no3)c2cc1F`
OUTPUT: 0.04

INPUT: Determine from records and report log10 IC50 for COCCOc1cc2[nH]nc(-c3cc(-c4ccc(N5CC[C@@H]6[C@H]5CCCN6C)cc4)no3)c2cc1F (relative stereo)
OUTPUT: -0.46

INPUT: Determine from records and report log10 IC50 for `COCCOc1cc2[nH]nc(-c3cc(-c4ccc(N5CCCS5(=O)=O)cc4)no3)c2cc1F`
OUTPUT: 0.81

INPUT: Determine from records and report log10 IC50 for `COCCOc1cc2[nH]nc(-c3cc(-c4ccc(C(=O)N5CCC[C@@H]5CO)nc4)no3)c2cc1F`
OUTPUT: 0.75

INPUT: Determine from records and report log10 IC50 for `COCCOc1cc2[nH]nc(-c3cc(-c4ccc(N5CC[S+]([O-])CC5)cc4)no3)c2cc1F`
OUTPUT: -0.43

INPUT: Determine from records and report log10 IC50 for `COCCOc1cc2[nH]nc(-c3cc(-c4ccc(C(=O)N5CCS(=N)(=O)CC5)cc4)no3)c2cc1F`
OUTPUT: 0.00

INPUT: Determine from records and report log10 IC50 for `COCCOc1cc2[nH]nc(-c3cc(-c4ccc(C(=O)N5CC(O)(c6cccnc6)C5)cc4)no3)c2cc1F`
OUTPUT: -0.27

INPUT: Determine from records and report log10 IC50 for `COc1cc2[nH]nc(-c3cc(-c4ccc(C(=O)N5CCN(C6COC6)CC5)cc4)no3)c2cc1F`
OUTPUT: 0.90

INPUT: Determine from records and report log10 IC50 for `COCCOc1cc2[nH]nc(-c3cc(-c4ccc(C(=O)N(C)C)cc4)no3)c2cc1C#N`
OUTPUT: 0.61

INPUT: Determine from records and report log10 IC50 for `COCCOc1cc2[nH]nc(-c3cc(-c4ccc(C(=O)N5CC[C@@H](F)C5)nc4)no3)c2cc1F`
OUTPUT: 0.76

INPUT: Determine from records and report log10 IC50 for `COCCOc1cc2[nH]nc(-c3cc(-c4ccc(C(=O)N5CCC[C@@H]5C(C)(C)O)nc4)no3)c2cc1F`
OUTPUT: 0.96

INPUT: Determine from records and report log10 IC50 for `COCCOc1cc2[nH]nc(-c3cc(-c4ccc(C(=O)N5Cc6cn[nH]c6C5)cc4)no3)c2cc1F`
OUTPUT: -0.13

INPUT: Determine from records and report log10 IC50 for `COCCOc1cc2[nH]nc(-c3cc(-c4ccc(C(=O)N5CC(c6cncnc6)C5)cc4)no3)c2cc1F`
OUTPUT: -0.23

INPUT: Determine from records and report log10 IC50 for COCCOc1cc2[nH]nc(-c3cc(-c4ccc(C5CCNCC5(C)C)cc4)no3)c2cc1F (stereo not shown)
OUTPUT: -0.40

Origin of values: patent US20260042753A1
